Target: P2X2/3 (Homo sapiens, UniProt P56373+Q9UBL9)
Assay: P2X2/3 FLIPR intracellular calcium assay
Settings: agonist at EC75, species (human or rat) not given
pIC50: −log10 of the molar value.
measured-attribute: pIC50

input: Any idea what its pIC50 is? The compound is Cc1ncc(CNC(=O)c2cc(-n3nncc3C(F)(F)F)c3ncc(-c4ncc(C)s4)n3c2)cn1
output: 6.00 to 7.00

input: Any idea what its pIC50 is? The compound is Cc1ccc(CNC(=O)c2cc(-n3nncc3C(C)(F)F)c3ncc(-c4ncc(C)s4)n3c2)cn1
output: 6.00 to 7.00

input: Any idea what its pIC50 is? The compound is Cc1ccc(-c2cnc3c(N4CCC(CF)CC4)cc(C(=O)N[C@@H](C)c4nnc[nH]4)cn23)s1
output: 6.00 to 7.00

input: Any idea what its pIC50 is? The compound is CCc1nnnn1-c1cc(C(=O)NCc2ccc(C)nc2)cn2c(-c3ccc(C)s3)cnc12
output: 7.00 to 9.00

###

Could you please report measured pIC50 for the items listed next?
Target: P2X3 (UniProt P56373)
Sequence (P56373 1-397): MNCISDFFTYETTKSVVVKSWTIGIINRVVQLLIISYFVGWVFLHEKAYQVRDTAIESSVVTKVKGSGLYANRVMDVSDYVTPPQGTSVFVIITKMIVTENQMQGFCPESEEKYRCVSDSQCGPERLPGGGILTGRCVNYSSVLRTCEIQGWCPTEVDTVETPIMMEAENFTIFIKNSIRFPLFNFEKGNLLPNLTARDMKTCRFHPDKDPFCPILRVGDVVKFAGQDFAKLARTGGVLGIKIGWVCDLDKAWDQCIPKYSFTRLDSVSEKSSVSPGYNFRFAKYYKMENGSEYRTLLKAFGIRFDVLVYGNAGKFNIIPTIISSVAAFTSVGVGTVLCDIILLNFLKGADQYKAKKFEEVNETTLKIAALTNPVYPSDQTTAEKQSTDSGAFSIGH
Test: P2X3 FLIPR intracellular calcium assay
Conditions: agonist at EC75, species (human or rat) not given
pIC50: −log10 of the molar value.

input: Any idea what its pIC50 is? The compound is Cc1ccc(CNC(=O)c2cc(-n3c(C)cnc3C)c3ncc(-c4ccc(C)s4)n3c2)cn1
output: < 5.00

input: Any idea what its pIC50 is? The compound is Cc1ccc(-c2cnc3c(NC4CCCC4)cc(C(=O)N[C@@H](C)c4nnc[nH]4)cn23)s1
output: 6.00 to 7.00

input: Any idea what its pIC50 is? The compound is Cc1ncc(CNC(=O)c2cc(-n3nnnc3C(F)F)c3ncc(-c4ncc(C)s4)n3c2)cn1
output: 7.00 to 9.00

input: Any idea what its pIC50 is? The compound is Cc1ccccc1-c1cnc2c(N3CCC(C)CC3)cc(C(=O)N[C@@H](C)c3nnc[nH]3)cn12
output: 6.00 to 7.00

input: Any idea what its pIC50 is? The compound is Cc1ccc(-c2cnc3c(-n4nncc4CC(F)(F)F)cc(C(=O)N[C@@H](C)c4nnc[nH]4)cn23)s1
output: 7.00 to 9.00

input: Any idea what its pIC50 is? The compound is CCc1cnnn1-c1cc(C(=O)NCc2ccc(C)nc2)cn2c(-c3ccc(C)s3)cnc12
output: 7.00 to 9.00

input: Any idea what its pIC50 is? The compound is Cc1ncc(CNC(=O)c2cc(-n3nncc3C(F)(F)F)c3ncc(-c4ncc(C)s4)n3c2)cn1
output: 7.00 to 9.00

input: Any idea what its pIC50 is? The compound is Cc1ccc(-c2cnc3c(-n4nncc4C(F)F)cc(C(=O)N[C@@H](C)c4nnc[nH]4)cn23)s1
output: 7.00 to 9.00

###

Could you please report measured IC50 for the items listed next?
Target: P2X2/3 (Homo sapiens, UniProt P56373+Q9UBL9)
Sequence (Q9UBL9 1-471): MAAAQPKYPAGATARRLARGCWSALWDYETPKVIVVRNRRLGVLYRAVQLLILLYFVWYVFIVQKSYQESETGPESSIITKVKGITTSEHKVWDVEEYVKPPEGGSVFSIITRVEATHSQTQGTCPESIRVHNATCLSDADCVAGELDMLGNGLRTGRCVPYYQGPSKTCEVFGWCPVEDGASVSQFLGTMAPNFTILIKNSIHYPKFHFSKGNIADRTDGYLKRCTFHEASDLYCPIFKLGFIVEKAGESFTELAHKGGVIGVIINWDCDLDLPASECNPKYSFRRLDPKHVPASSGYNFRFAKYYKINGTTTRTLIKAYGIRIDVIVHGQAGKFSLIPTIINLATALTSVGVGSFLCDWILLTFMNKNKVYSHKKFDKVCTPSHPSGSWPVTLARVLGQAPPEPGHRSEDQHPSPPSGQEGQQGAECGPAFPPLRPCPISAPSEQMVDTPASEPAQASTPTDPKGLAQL
Sequence (P56373 1-397): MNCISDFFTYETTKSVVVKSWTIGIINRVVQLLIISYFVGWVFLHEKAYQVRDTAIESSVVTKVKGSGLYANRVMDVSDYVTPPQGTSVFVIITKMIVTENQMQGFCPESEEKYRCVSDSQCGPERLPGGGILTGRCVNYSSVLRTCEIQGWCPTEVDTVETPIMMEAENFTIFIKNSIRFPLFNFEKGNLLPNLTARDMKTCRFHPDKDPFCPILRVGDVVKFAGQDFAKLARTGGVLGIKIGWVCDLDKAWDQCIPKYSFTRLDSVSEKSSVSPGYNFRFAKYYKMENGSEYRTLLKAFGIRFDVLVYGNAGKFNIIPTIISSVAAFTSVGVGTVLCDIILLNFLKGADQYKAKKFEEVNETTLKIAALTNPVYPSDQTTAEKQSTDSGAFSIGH
Assay: P2X2/3 FLIPR intracellular calcium assay
Format: cell-based
Details: agonist at EC75, species (human or rat) not given

input: What is its IC50 for P2X2/3 (Homo sapiens, UniProt P56373+Q9UBL9)? Entry: C[C@H](NC(=O)c1cc(-n2nnnc2C(F)F)c2ncc(-c3ccc(Cl)s3)n2c1)c1nnc[nH]1 [Example 170]
output: 1 to 100 nM

input: What is its IC50 for P2X2/3 (Homo sapiens, UniProt P56373+Q9UBL9)? Entry: Cc1ncc(CNC(=O)c2cc(-n3nncc3C(C)(F)F)c3ncc(-c4ccc(C)s4)n3c2)cn1 [Example 72]
output: 1 to 100 nM

input: What is its IC50 for P2X2/3 (Homo sapiens, UniProt P56373+Q9UBL9)? Entry: Cc1ccc(-c2cnc3c(NC4CCCC4)cc(C(=O)N[C@@H](C)c4nnc[nH]4)cn23)s1 [Example 135]
output: 100 to 1000 nM

input: What is its IC50 for P2X2/3 (Homo sapiens, UniProt P56373+Q9UBL9)? Entry: CCc1cnnn1-c1cc(C(=O)N[C@@H](CC)c2nnc[nH]2)cn2c(-c3ccc(C)s3)cnc12 [Example 58]
output: 1 to 100 nM

input: What is its IC50 for P2X2/3 (Homo sapiens, UniProt P56373+Q9UBL9)? Entry: Cc1ccc(CNC(=O)c2cc(-n3nncc3C(F)F)c3ncc(-c4ccc(C)o4)n3c2)cn1 [Example 48]
output: 1 to 100 nM

input: What is its IC50 for P2X2/3 (Homo sapiens, UniProt P56373+Q9UBL9)? Entry: Cc1ccc(CNC(=O)c2cc(N3CCC(C)CC3)c3ncc(-c4ccc(C)s4)n3c2)cn1 [Example 115]
output: 100 to 1000 nM

input: What is its IC50 for P2X2/3 (Homo sapiens, UniProt P56373+Q9UBL9)? Entry: CC[C@H](NC(=O)c1cc(-n2nncc2C(F)F)c2ncc(-c3ccc(C)s3)n2c1)c1nnc[nH]1 [Example 52]
output: 1 to 100 nM

input: What is its IC50 for P2X2/3 (Homo sapiens, UniProt P56373+Q9UBL9)? Entry: CCc1cnnn1-c1cc(C(=O)N[C@@H](C)c2nnc[nH]2)cn2c(-c3ccc(C)s3)cnc12 [Example 23]
output: 100 to 1000 nM

input: What is its IC50 for P2X2/3 (Homo sapiens, UniProt P56373+Q9UBL9)? Entry: CCc1ccnn1-c1cc(C(=O)NCc2ccc(C)nc2)cn2c(-c3ccc(C)s3)cnc12 [Example 6]
output: 100 to 1000 nM

input: What is its IC50 for P2X2/3 (Homo sapiens, UniProt P56373+Q9UBL9)? Entry: Cc1ncc(CNC(=O)c2cc(-n3nncc3C(F)(F)F)c3ncc(-c4ccc(C)s4)n3c2)cn1 [Example 39]
output: 1 to 100 nM

input: What is its IC50 for P2X2/3 (Homo sapiens, UniProt P56373+Q9UBL9)? Entry: Cc1ccc(-c2cnc3c(-n4nncc4C4CC4)cc(C(=O)N[C@@H](C)c4nnc[nH]4)cn23)s1 [Example 34]
output: 1 to 100 nM

input: What is its IC50 for P2X2/3 (Homo sapiens, UniProt P56373+Q9UBL9)? Entry: Cc1ccc(CNC(=O)c2cc(-n3nnnc3C3CCC3)c3ncc(-c4ccc(C)s4)n3c2)cn1 [Example 155]
output: 1 to 100 nM

input: What is its IC50 for P2X2/3 (Homo sapiens, UniProt P56373+Q9UBL9)? Entry: C[C@H](NC(=O)c1cc(-n2nnnc2C(C)(F)F)c2ncc(-c3ccc(Cl)s3)n2c1)c1nnc[nH]1 [Example 184]
output: 1 to 100 nM

input: What is its IC50 for P2X2/3 (Homo sapiens, UniProt P56373+Q9UBL9)? Entry: Cc1ccc(-c2cnc3c(-n4nncc4C(F)F)cc(C(=O)N[C@@H](C)c4nnc[nH]4)cn23)s1 [Example 4]
output: 1 to 100 nM

input: What is its IC50 for P2X2/3 (Homo sapiens, UniProt P56373+Q9UBL9)? Entry: Cc1cnc(CNC(=O)c2cc(-n3nncc3C(F)F)c3ncc(-c4ccc(C)o4)n3c2)cn1 [Example 78]
output: 1 to 100 nM
